Data provenance: patent US7084136B2

Would you mind telling me the reported IC50 of each entry?
# Tgt: PGD2 receptor (Homo sapiens)
# Construct: A suspension adjusted to contain the platelets at a final concentration of 5×10^8/ml was warmed at 37° C; endogenous in cells; host or cells: washed human platelets from a healthy volunteer
# Sequence (Q13258 whole entry): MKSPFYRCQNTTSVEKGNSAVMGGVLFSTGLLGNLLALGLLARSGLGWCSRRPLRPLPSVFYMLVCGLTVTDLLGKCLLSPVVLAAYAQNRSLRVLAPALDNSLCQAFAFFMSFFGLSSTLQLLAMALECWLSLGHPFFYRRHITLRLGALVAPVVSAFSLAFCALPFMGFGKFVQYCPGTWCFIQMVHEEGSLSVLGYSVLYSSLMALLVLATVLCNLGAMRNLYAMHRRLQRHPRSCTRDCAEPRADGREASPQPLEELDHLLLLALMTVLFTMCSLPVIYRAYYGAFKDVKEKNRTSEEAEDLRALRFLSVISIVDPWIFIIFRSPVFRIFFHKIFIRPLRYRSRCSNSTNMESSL
# Test protocol: Binding activity to PGD2 receptor ([3H]PGD2, human platelet membrane fraction)
# Protocol conditions: human platelet membrane fraction; read-out: Binding activity to PGD2 receptor in human platelet membrane fraction IC50
Numbers only, in nM.

> print(dat)
                                item.smiles  measurement.unit  value.measured
1  Cc1ccc(S(=O)(=O)c2ccc(C(=O)N[C@H]3[C@H]4CC[C@H](C4)[C@@H]3C/C=C\CCCC(=O)O)s2)s1                nM              32
2  O=C(O)CCC/C=C\C[C@H]1[C@@H]2CC[C@@H](C2)[C@@H]1NC(=O)c1ccc(S(=O)(=O)n2cccc2)s1                nM             4.3
3  O=C(O)CCC/C=C\C[C@H]1[C@@H]2CC[C@@H](C2)[C@@H]1NC(=O)c1ccc(Cc2cccs2)s1                nM               7

Query molecule follows.
Just so you know, measured IC50 for `O=C(O)CCC/C=C\C[C@H]1[C@@H]2CC[C@@H](C2)[C@@H]1NC(=O)c1ccc(S(=O)(=O)c2cccc(O)c2)s1` came out at 9.1
